Reference source for all entries: ChEMBL document CHEMBL4007384

target: Glycogen synthase kinase-3 alpha (Homo sapiens, UniProt P49840)
Sequence (P49840 whole entry): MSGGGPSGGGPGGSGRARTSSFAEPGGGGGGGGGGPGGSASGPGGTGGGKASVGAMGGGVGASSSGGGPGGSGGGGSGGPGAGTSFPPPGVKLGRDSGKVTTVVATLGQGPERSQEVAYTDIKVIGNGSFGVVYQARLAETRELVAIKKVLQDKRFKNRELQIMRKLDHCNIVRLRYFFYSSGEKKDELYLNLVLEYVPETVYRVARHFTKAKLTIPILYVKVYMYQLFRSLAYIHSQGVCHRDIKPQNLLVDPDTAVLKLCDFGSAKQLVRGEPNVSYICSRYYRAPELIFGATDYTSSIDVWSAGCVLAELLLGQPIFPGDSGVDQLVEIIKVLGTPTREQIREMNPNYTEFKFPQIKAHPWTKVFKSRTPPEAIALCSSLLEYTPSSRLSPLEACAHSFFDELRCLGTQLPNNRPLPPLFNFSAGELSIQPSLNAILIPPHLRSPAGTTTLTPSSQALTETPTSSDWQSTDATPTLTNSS
reportedEndpoint: IC50

For the molecule shown here, FC(F)(F)CNc1nc(Nc2ccc(N3CCOCC3)c(Cl)c2)nc2ccoc12 , give the reported IC50.
> 10 µM

---

Molecular target: Serine/threonine-protein kinase TBK1 (Homo sapiens, UniProt Q9UHD2)
Sequence (Q9UHD2 whole entry): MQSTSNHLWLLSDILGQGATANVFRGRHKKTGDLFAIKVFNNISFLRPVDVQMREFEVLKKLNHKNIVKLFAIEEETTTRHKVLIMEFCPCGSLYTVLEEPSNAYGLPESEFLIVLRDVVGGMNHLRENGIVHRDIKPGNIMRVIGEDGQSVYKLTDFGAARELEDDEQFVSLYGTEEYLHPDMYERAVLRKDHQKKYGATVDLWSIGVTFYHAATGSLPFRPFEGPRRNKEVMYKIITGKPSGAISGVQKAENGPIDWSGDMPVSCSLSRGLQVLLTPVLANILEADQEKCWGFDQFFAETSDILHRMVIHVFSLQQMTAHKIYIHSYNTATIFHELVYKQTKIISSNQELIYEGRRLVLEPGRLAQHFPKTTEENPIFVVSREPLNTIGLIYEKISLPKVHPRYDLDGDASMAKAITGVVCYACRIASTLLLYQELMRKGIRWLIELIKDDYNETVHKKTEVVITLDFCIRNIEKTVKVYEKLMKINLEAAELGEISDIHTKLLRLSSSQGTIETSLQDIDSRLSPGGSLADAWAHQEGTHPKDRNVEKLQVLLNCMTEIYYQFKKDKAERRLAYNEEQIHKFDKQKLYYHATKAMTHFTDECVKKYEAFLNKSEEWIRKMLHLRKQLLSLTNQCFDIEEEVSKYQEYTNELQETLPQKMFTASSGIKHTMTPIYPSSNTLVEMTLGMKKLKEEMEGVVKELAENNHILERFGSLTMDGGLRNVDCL
pIC50: −log10 of the molar value.
reportedEndpoint: pIC50

For the compound shown here, FC(F)(F)CNc1nc(Nc2ccc3cn[nH]c3c2)nc2ccoc12 , give the reported pIC50.
< 5.00

---

biological target: Death-associated protein kinase 3 (Homo sapiens, UniProt O43293)
Sequence (O43293 whole entry): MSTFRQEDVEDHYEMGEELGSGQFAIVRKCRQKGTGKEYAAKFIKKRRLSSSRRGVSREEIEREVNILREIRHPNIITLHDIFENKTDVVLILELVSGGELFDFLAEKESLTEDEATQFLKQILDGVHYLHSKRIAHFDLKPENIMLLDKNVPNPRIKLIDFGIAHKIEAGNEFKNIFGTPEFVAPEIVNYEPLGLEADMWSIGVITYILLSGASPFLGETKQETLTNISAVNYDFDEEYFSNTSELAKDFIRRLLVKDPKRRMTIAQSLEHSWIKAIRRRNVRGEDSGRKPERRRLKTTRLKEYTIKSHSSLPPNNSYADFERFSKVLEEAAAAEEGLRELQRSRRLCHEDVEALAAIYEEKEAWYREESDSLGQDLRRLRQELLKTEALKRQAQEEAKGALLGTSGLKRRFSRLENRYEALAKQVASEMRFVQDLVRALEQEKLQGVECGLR
pIC50: −log10 of the molar value.
reportedEndpoint: pIC50

CC1(C)OCC(=O)Nc2cc(Nc3nc(NCC(F)(F)F)c4occc4n3)ccc21 : < 5.00
Cc1n[nH]c2cc(Nc3nc(NC4CC4)c4occc4n3)ccc12 : 5.30

Shift focus to the following entry.
For the compound shown here, FC(F)(F)CNc1nc(Nc2ccc(N3CCOCC3)c(Cl)c2)nc2ccoc12 , give the reported pIC50.
< 5.00

---

Documented pIC50 across a set of molecules
biological target: Platelet-derived growth factor receptor beta (Homo sapiens); test: Inhibition of PDGFRB (unknown origin) after 60 mins by TR-FRET assay
Sequence (P09619 whole entry): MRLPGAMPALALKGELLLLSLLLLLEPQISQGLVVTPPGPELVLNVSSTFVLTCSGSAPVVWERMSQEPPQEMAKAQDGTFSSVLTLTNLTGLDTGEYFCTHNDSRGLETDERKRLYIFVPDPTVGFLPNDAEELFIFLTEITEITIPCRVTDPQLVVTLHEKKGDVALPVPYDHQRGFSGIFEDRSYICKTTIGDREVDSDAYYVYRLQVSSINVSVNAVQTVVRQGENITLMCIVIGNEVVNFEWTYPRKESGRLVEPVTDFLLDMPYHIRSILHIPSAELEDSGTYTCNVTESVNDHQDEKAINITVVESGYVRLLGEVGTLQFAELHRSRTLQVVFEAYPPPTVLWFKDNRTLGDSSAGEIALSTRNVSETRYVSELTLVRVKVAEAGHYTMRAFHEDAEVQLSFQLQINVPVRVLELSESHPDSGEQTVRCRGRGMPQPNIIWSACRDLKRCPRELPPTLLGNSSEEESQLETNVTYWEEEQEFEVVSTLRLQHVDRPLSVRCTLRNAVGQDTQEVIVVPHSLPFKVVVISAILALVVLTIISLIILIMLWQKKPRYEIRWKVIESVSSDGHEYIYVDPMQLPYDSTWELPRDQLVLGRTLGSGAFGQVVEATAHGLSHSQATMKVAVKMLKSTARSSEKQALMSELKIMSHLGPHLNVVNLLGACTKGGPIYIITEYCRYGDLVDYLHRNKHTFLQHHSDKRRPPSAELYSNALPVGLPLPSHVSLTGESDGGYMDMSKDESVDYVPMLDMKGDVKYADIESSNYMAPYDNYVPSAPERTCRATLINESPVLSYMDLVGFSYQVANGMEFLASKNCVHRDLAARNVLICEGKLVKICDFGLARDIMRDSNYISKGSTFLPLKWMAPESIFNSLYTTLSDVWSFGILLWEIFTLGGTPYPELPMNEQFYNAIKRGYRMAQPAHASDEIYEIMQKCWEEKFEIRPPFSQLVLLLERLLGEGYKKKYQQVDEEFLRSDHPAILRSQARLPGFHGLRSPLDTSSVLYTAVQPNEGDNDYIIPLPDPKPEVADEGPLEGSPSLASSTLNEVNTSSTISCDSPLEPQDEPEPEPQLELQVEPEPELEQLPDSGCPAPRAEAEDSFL
pIC50: −log10 of the molar value.

Examples from the recorded data:
FC(F)(F)CNc1nc(Nc2ccc(N3CCOCC3)c(Cl)c2)nc2ccoc12 : < 5.00
CC1(C)OCC(=O)Nc2cc(Nc3nc(NCC(F)(F)F)c4occc4n3)ccc21 : 5.28

For the molecule shown here, Cc1n[nH]c2cc(Nc3nc(NC4CC4)c4occc4n3)ccc12 , give the reported pIC50.
< 5.00

---

Target: UniProtKB O14965
Sequence (O14965 whole entry): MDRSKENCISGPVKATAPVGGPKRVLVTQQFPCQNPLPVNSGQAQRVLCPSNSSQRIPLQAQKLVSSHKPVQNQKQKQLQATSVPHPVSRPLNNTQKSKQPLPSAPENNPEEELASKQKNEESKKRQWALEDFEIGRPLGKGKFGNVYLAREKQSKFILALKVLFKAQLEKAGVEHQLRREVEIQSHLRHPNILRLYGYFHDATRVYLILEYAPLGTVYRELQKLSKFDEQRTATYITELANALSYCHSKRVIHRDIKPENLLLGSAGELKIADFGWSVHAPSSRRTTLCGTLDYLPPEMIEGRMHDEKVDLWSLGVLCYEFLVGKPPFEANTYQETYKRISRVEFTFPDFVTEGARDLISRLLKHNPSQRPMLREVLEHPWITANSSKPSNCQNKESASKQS
reportedEndpoint: IC50

Examples from the recorded data:
CC1(C)OCC(=O)Nc2cc(Nc3nc(NCC(F)(F)F)c4occc4n3)ccc21 : 4.05 µM
Cc1n[nH]c2cc(Nc3nc(NC4CC4)c4occc4n3)ccc12 : > 10 µM
FC(F)(F)CNc1nc(Nc2ccc(N3CCOCC3)c(Cl)c2)nc2ccoc12 : > 10 µM

Shift focus to the following entry.
For the molecule shown here, FC(F)(F)CNc1nc(Nc2ccc3cn[nH]c3c2)nc2ccoc12 , give the reported IC50.
> 10 µM
